Reference source: patent US20190071480A1

- subjectOfTest: T1, extracellular domain of activin receptor type IIB (ActRIIBecd), biotinylated (Homo sapiens (Human), UniProt Q13705 27-117, amino-biotinylated with amine-PEG3-Biotin)
- T1 construct: immobilised on a streptavidin-coated sensor chip; also called biotinylated ActRIIBecd; extracellular domain of ActRIIB
- T1 sequence: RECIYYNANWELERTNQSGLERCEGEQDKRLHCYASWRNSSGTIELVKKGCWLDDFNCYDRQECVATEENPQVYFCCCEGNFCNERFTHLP
- assayInfo: BIAcore SPR, biotinylated ActRIIBecd on chip; SD ±16.71 nM
propertyLabel: Kd (nM)
Report the figure in nM without appending any unit label.

Q) Entry AQAKHKGYKRLKSSCKRHPLY [Clone No. 9 domain (ActRIIBecd-associated polypeptide)] : reported Kd = ?
A) 52.4
